FYI, the data here is from the supplement of paper PMC10065799.

# TARGET_DESC: EPHB1 (UniProt P54762)
# Sequence (P54762 whole entry, looked up): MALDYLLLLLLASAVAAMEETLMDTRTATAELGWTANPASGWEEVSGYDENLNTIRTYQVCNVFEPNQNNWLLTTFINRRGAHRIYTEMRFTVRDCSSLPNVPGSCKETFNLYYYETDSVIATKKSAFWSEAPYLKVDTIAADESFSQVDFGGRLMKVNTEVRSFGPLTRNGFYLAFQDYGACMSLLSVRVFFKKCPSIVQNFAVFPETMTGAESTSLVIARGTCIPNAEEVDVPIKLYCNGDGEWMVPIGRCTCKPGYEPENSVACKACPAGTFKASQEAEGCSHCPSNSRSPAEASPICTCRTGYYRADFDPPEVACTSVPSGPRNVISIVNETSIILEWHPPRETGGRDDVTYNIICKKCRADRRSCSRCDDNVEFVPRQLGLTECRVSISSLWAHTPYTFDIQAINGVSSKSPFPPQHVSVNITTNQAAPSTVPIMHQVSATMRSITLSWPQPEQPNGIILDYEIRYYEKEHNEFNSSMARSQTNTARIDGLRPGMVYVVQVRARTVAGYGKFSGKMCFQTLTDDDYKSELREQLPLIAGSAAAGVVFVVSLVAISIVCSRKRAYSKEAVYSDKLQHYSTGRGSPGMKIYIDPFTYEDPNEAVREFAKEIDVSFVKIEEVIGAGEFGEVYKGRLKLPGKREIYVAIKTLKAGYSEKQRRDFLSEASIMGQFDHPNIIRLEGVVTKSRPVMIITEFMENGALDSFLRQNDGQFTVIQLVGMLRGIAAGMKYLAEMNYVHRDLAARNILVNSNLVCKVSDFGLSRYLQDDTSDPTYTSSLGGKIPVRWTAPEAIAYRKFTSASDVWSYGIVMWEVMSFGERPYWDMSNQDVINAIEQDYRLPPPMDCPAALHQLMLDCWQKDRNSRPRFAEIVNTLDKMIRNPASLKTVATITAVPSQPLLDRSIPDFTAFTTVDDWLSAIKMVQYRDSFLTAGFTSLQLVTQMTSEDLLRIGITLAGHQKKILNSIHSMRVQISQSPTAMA
# PROTOCOL_SUMMARY: phosphorylation enrichment, bacterial display (enrichment ratio); higher = better substrate or ligand; peptides without Tyr show the background;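 also: 11-residue human phosphosite peptides and single-mutation variants displayed on the E. coli surface, counted by deep sequencing, each peptide's frequency after selection divided by its frequency in the unselected input library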;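 also: frequency after pTyr selection over input frequency; kinase dosed for 20-30% of maximal phosphorylation in three min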
MEASURED_ATTRIBUTE: phosphorylation enrichment
One number for each entry.

Parameters: items (list). Returns: phosphorylation enrichment for each item.
1. QTEAPYRFIFM [PTPN11_Y511_Q510P_YF]
2. FTNRNYDLDYD [MYC_Y12]
3. QLAPQYTYAQG [FLNA_Y1761]
4. TLQSMYGCDLG [HLA-B_Y123_V127L]
5. GLQDEYDFKCK [STAT1_Y170_D165G]
6. DVYVSYDYGKS [SORL1_Y139]
7. LNPFIYSLRNR [OR1A1_Y288]

Reply |
1. 0.728
2. 0.666
3. 0.52
4. 0.836
5. 0.509
6. 2.95
7. 0.437
